# Protocol Description: Lipophilicity, log P of the compound
# Assay type: physicochemical
# Condition Parameters: octanol/water
Exercise: for every item that follows, state its recorded logP.
Give only the figure.

Query: Tell me measured logP for Cc1cc(NC(=O)c2cncc(Cl)n2)ccc1Cl please.
Response: 2.53

Query: Give logP for Cc1ccc(NC(=O)c2cncc(Cl)n2)cc1I
Response: 3.33

Query: Provide measured logP value, entry: Cc1cc(NC(=O)c2cnc(C(C)(C)C)cn2)ccc1Cl
Response: 3.76

Query: Input CC(C)(C)c1ncc(C(=O)Nc2ccccc2F)nc1Cl , output reported logP.
Response: 3.78

Query: Tell me its logP given CN(C)C(=O)Nc1ccc(Cl)c(Cl)c1 as the entry.
Response: 2.76

Query: // Input: CC(C)(C)c1ncc(C(=O)Nc2ccc(C(F)(F)F)cc2)nc1Cl . Output its logP only.
Response: 4.54

---

# System: Spinacia oleracea
# Protocol Description: Inhibition of photosynthetic electron transport in Spinacia oleracea (spinach) chloroplasts assessed as decrease in oxygen evolution measured after irradiated with 250 W halogen lamp by herbicidal assay in presence of electron acceptor 2,6-dichlorophenol-indophenol
# Type: functional
# Condition Parameters: L., light or radiation study
Checkbox rule: IC50 lower than 200 µM = met; IC50 not lower than 200 µM = not met.

Query: Please state whether IC50 is below 200 µM for CC(C)(C)c1ncc(C(=O)Nc2ccccc2F)nc1Cl
Response: met

Query: Is IC50 of Cc1cc(NC(=O)c2cncc(Cl)n2)ccc1Cl strictly below 200 µM?
Response: not met

Query: Is IC50 strictly under 200 µM for the entry Cc1cc(NC(=O)c2cnc(C(C)(C)C)cn2)ccc1Cl ?
Response: met

Query: Just wondering, is IC50 of Cc1ccc(NC(=O)c2cncc(Cl)n2)cc1I below 200 µM?
Response: met

Query: Hello, I'm reviewing records and need to know if IC50 of CC(C)(C)c1ncc(C(=O)Nc2ccc(C(F)(F)F)cc2)nc1Cl is below 200 µM. Could you check?
Response: met
